System: HLA-A*02:01;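 further: lysates heated 10 min at 37–73 °C, complexes pulled down with pan-HLA I antibody, peptide signal by DIA-MS relative to 37 °C, Tm where half the complex is unfolded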
Test summary: thermal melting temperature (Tm) of peptide-HLA complex; higher = more thermostable pHLA complex
Measurement setup: C1R-A*02:01
Whole data set: some 1,100 sequences, median “thermal melting temperature (Tm) of peptide-HLA complex” near 58, cut for the lowest 2% near 42. This is one part of a sample in which the lowest values are shown more often than they occur.
Is thermal melting temperature at least 50 °C? Then t. If not, f.

Hi, just wondering whether `NLFNRYPAL` shows thermal melting temperature of 50 °C or higher.
t

Hi, just wondering whether `YQLEAEFVGV` shows thermal melting temperature of 50 °C or higher.
t

Hi, just wondering whether `SLAGGLDDMKA` shows thermal melting temperature of 50 °C or higher.
f

Hi, just wondering whether `HLAIKLEQV` shows thermal melting temperature of 50 °C or higher.
t

Hi, just wondering whether `ALDRDNFEL` shows thermal melting temperature of 50 °C or higher.
f

Hi, just wondering whether `LLAILPEAARA` shows thermal melting temperature of 50 °C or higher.
t

Hi, just wondering whether `SLLPEGPPAI` shows thermal melting temperature of 50 °C or higher.
t
